test: Plasma drug exposure of ABC294640; type: in vivo, human; conditions: human, plasma, oral, 250 mg
Measured attribute: AUC(0-t) (ng·h/mL)
Response body: numeric value in ng·h/mL, unit text excluded.

Challenge: Which AUC(0-t) value is on record for O=C(NCc1ccncc1)C12CC3CC(C1)CC(c1ccc(Cl)cc1)(C3)C2 [ABC294640] ?
Response given: 17800

---

experiment: Plasma drug exposure of ABC294640; format: in vivo, human; settings: human, plasma, po
Measured attribute: half-life

Challenge: State the recorded half-life for this entry: O=C(NCc1ccncc1)C12CC3CC(C1)CC(c1ccc(Cl)cc1)(C3)C2 [ABC294640]
Response given: 5 to 15 h

---

experiment: Plasma drug exposure of ABC294640; type: in vivo, human; conditions: human, plasma, oral, 250 mg
Measured attribute: AUC(0-inf)

Challenge: Any idea what AUC(0-inf) was measured for `O=C(NCc1ccncc1)C12CC3CC(C1)CC(c1ccc(Cl)cc1)(C3)C2` ?
Response given: 15200 ng·h/mL

---

assay: Plasma drug exposure of ABC294640; format: in vivo, human; details: human, plasma, oral, 500 mg
Measured attribute: AUC(0-t) (ng·h/mL)
Numbers only; they are read as ng·h/mL.

Challenge: Field request: AUC(0-t) | item: O=C(NCc1ccncc1)C12CC3CC(C1)CC(c1ccc(Cl)cc1)(C3)C2 [ABC294640]
Response given: 50800
